targetDesc: TNFα trimer (Homo sapiens)
Sequence (P01375 77-233 limits assumed): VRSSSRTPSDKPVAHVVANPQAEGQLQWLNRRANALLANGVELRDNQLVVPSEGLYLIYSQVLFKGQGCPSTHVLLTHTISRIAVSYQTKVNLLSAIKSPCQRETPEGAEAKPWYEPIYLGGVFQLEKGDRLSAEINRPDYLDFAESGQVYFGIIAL
protocolNotes: TNFα FP Competitive Binding Assay
protocolConditions: FP binding assay; 20 nM TNFα trimer, 1 nM OregonGreen488 probe; read-out: TNF IC50
I'd appreciate it if you could supply IC50 values for the items below.

Solved cases (2 shown):
# compound, IC50
records = [
    ("Cc1ccc(OC(F)F)c(Cn2c3cc(-c4cnc(N5CCN(C(=O)CC#N)[C@H](C)C5)nc4)ccc3c(=O)n2C)c1", "< 1 µM"),
    ("Cc1ccc(OC(F)F)c(Cn2c3cc(-c4cnn5c(C(C)O)cnc5c4)ccc3c(=O)n2C)c1 (racemic)", "< 1 µM"),
]

Let us move to another entry and its IC50.
query: In one line, give reported IC50 of the entry Cc1ccc(OC(F)F)c(Cn2c3cc(-c4cnc(N5CCN(C(=O)[C@H](C)N)[C@H](C)C5)nc4)ccc3c(=O)n2C)c1 .
result: < 1 µM

Data origin, for the record: patent US10160748B2
